System: SN12C
assay_protocol: NCI tumour cell line growth inhibition, 48 h
The source made the active and inactive calls. No stated cut-off is given here; in the data, active = GI50 up to about 1.1 µM and inactive = higher.
outcome_measure: GI50

The examples below pair each entry with its known result.
[[record]]
compound = "COc1cc(OC)c2c(c1)C(=O)C(CC(C)O)=CC2=O (stereo not given)"
outcome_measure = "GI50"
value_measured = "18.7 µM (inactive)"

[[record]]
compound = "CC1(C(=O)NCCN(CCNC(=O)C2(C)CC3(C)CC(C)(C2)C(=O)NC3=O)CCNC(=O)C2(C)CC3(C)CC(C)(C2)C(=O)NC3=O)CC2(C)CC(C)(C1)C(=O)NC2=O (stereo not given)"
outcome_measure = "GI50"
value_measured = "> 100 µM (inactive)"

[[record]]
compound = "CC1CN(c2ccc(Cl)cc2)CC(C)OC(=O)O1 (stereo not given)"
outcome_measure = "GI50"
value_measured = "> 100 µM (inactive)"


Below is a list of compounds. For each, state its recorded GI50.
1. O=C(OCCOCCOC(=O)c1c[nH]cc1-c1ccccc1)c1c[nH]cc1-c1ccccc1
2. COC(=O)[C@@H]1C[C@@]23CCCN4CC[C@@]5(c6cccc(OC)c6N(C=O)[C@]15CC2)[C@@H]43
3. Cc1nc2c(n1CCN(C)C)C(=O)c1ccccc1C2=O

1. 18.1 µM (inactive)
2. > 100 µM (inactive)
3. 16.6 µM (inactive)
